species: Homo sapiens; assay: Inhibition of human ProRS expressed in Escherichia coli assessed as change in melting temperature in presence of AMPPNP at 0.5 mM by fluorescence-based thermal shift assay
ENDPOINT LABEL: ΔTm (°C)
One number for each entry, in °C.

Please review the entries below; each comes with its answer.
MOLECULE: O=C(C[C@@H]1CCCCN1)Cn1cnc2cc(Br)c(Cl)cc2c1=O
UNIT DESCRIPTOR: °C
ΔTm: 17.9
//
MOLECULE: O=C(C[C@@H]1CCCCN1)Cn1cnc2cc(Cl)c(Cl)cc2c1=O
UNIT DESCRIPTOR: °C
ΔTm: 18.9
//
MOLECULE: O=C(C[C@@H]1CCCCN1)Cn1cnc2cc(C(F)(F)F)ccc2c1=O
UNIT DESCRIPTOR: °C
ΔTm: 16.9
//
MOLECULE: O=C(C[C@@H]1CCCCN1)Cn1cnc2ccc(C(F)(F)F)cc2c1=O
UNIT DESCRIPTOR: °C
ΔTm: 9.9
//
MOLECULE: O=c1c2cc(Cl)c(Cl)cc2ncn1CCC[C@@H]1CCCCN1
UNIT DESCRIPTOR: °C
ΔTm: 12.4

Look at each molecule and report its ΔTm.
1. O=c1c2cc(Cl)c(Br)cc2ncn1CC(O)C[C@@H]1CCCCN1 (stereo partly specified)
2. O=C(C[C@@H]1CCCCN1)Cn1cnc2ccc(F)cc2c1=O
3. O=C(C[C@@H]1CCCCN1)Cn1cnc2cccc(Cl)c2c1=O

Response:
[11.9, 17.9, 15.9]

I'm hoping you can list ΔTm for every molecule here, please.
1. O=C(C[C@@H]1CCCCN1)Cn1cnc2cc(Cl)c(F)cc2c1=O
2. O=C(C[C@@H]1CCCCN1)Cn1cnc2cc3c(cc2c1=O)OCO3
3. O=C(C[C@@H]1CCCCN1)Cn1cnc2nccnc2c1=O

Response:
20.4
15.9
4.9
